Reported pKd values for the following binders.
- Target Of Assay: T1, Recombinant human CD4 (R&D Systems, Cat. 10327-CD) (human, UniProt P01730 26-390, limits assumed)
- T1 construct: Soluble analyte in the Octet assay
- Experimental Details: BLI Octet, mAb on anti-mouse Fc sensor, CD4 100/50/25 nM, 1:1 global fit;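 further: antibodies loaded at 10 µg/mL, an unrelated mouse-derived antibody served as internal reference control, association and dissociation phases fitted after Savitzky-Golay smoothing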
pKd: −log10 of the molar value.
Recorded Metric: pKd

• 75110_04F22A (antibody, V domains shown, Tested as antibody purified from AlivaMab Mouse hybridoma supernatant (captured by anti-mouse IgG Fc)) VH: EVQLVESGGGLVQPGGSLRLSCAASGFTFSSYDIHWVRQATGKGLEWVSTIGTAGDTYYPGSVKGRFTISRENAKNSLYLQMNSLRAGDTAVYYCARGGYYYYGMDVWGQGTTVTVSS VL: EIVLTQSPGTLSLSPGERATLSCRASQSVYSSYLAWYQQKPGQAPRLLIYGASSRATGIPDRFSGSGSGTDFTLTISRLEPEDFAVYYCQQFGTSPFTFGPGTKVDIK = 8.23
• 75110_01H18A (antibody, V domains shown, Tested as antibody purified from AlivaMab Mouse hybridoma supernatant (captured by anti-mouse IgG Fc)) VH: QVQLQQWGAGLLKPSETLSLTCAVYGGSFSGYYWSWIRQSPGKGLEWIGEINQSGSTNYNPSLKSRVTISVDTSKNQFSLKLSSVTAADTAVYYCARVINWFDSWGQGTLVTVSS VL: DIQMTQSPSSVSASVGDRVTITCRASQGISSWLAWYQQKPGKAPKLLIYAASSFQSGVPSRFSGSGSGTDFTLTISSLQTEDFATYYCQQANSFPYTFGQGTRLEIK = 7.80
• 75110_01C18A (antibody, V domains shown, Tested as antibody purified from AlivaMab Mouse hybridoma supernatant (captured by anti-mouse IgG Fc)) VH: EVQLVESGGGLIQPGGSLRLSCAASGFTVSSNYMNWVRQAPGKGLEWVSVIYAGDNTYSADSVKGRFTISRDNSNNTLCLQMNSLRAEDTAVYYCAREGGTTGAFDIWGQGTMVTVSS VL: DIQMTQSPSSVSASVGDRVTITCRASQGINSWLAWYQQKPGKAPKLLIYAASSLQSGVPSRFSGSGSGTDFTLTISSLQPEDFATYYCQQGNSFPYTFGQGTKLEIK = 7.62
• 75110_04G16A (antibody, V domains shown, Tested as antibody purified from AlivaMab Mouse hybridoma supernatant (captured by anti-mouse IgG Fc)) VH: QVQLQESGPGLVKPSQTLSLTCTVSGDSISSGYYYWSWIRQHPGKGLEWIGYISYSGSTYYNPSLKSRLTISVNTSKNQFSLKLSSLTAADTAVYYCARDRPSNFDAFDIWGQGTMVTVSS VL: EIVLTQSPGTLSLSPGERATLSCRASQSVGSTYLAWYQQKPGQAPRLLIYGAFSRATGIPDRFSGSGSGTDFTLTISRLEPEDFAVYYCQQYGSSPLTFGPGTKVDIK = 8.28
• 75110_05B13A (antibody, V domains shown, Tested as antibody purified from AlivaMab Mouse hybridoma supernatant (captured by anti-mouse IgG Fc)) VH: QVLLEQWGAGLLKPSETLSLTCAVYGGSFSGYYWTWIRQPPGKGLEWIGEINHRGSTNYNPSLKSRVTISIDTSKNQFSLKVKSVTAADTAMYYCTRPDSNWFDPWGQGTLVTVSS VL: DIQMTQSPSSVSASVGDRVTITCRASQDISNWLAWYQQKPGKAPKLLIFAASSLQSGVPSRFSGSGSGTDFTLTISSLQPEDFATYYCQQANSFPLTFGGGTKVEIK = 8.27
